Kindly state abundance fitness for each of the entries shown.
B1: Tyrosine-protein kinase Lck, residues 63 to 120; numbered along this chain, P06239 (parent)
chain: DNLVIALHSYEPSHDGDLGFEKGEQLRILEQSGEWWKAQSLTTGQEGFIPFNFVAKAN

variants of: B1; experiment: abundance fitness (aPCA) (normalised: wild type 0, dead -1); higher = more abundant; growth selection in yeast, the domain comes from the species named; conditions: Homo sapiens
Numbers only.

| Mutant designation | Recorded endpoint | Readout value |
| --- | --- | --- |
| S32Q | abundance fitness | 0.182 |
| G44I | abundance fitness | -0.591 |

Provide each entry's abundance fitness from the list below.
1. P50V
2. L26C
3. S9K
4. K22T
5. G19H
6. H14S

-0.936
-1.28
0.017
-0.187
-0.299
-0.031
